biological target: EGFR L858R (Homo sapiens, UniProt P00533, L858R); experiment: pEGFR Y1068 ELISA assay, NIH3T3/EGFR_L858R cells; conditions: 3T3 cell line, 2 hrs compound treatment; read-out: pEGFRY1068 ELISA3T3 L858R IC50;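 note: sandwich ELISA of phospho-EGFR Tyr1068 in lysates of stably transfected NIH/3T3 pools after 2 h compound exposure at 37 °C, 11-point threefold dilution series run in duplicate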
Sequence (P00533 25-1210 L858R): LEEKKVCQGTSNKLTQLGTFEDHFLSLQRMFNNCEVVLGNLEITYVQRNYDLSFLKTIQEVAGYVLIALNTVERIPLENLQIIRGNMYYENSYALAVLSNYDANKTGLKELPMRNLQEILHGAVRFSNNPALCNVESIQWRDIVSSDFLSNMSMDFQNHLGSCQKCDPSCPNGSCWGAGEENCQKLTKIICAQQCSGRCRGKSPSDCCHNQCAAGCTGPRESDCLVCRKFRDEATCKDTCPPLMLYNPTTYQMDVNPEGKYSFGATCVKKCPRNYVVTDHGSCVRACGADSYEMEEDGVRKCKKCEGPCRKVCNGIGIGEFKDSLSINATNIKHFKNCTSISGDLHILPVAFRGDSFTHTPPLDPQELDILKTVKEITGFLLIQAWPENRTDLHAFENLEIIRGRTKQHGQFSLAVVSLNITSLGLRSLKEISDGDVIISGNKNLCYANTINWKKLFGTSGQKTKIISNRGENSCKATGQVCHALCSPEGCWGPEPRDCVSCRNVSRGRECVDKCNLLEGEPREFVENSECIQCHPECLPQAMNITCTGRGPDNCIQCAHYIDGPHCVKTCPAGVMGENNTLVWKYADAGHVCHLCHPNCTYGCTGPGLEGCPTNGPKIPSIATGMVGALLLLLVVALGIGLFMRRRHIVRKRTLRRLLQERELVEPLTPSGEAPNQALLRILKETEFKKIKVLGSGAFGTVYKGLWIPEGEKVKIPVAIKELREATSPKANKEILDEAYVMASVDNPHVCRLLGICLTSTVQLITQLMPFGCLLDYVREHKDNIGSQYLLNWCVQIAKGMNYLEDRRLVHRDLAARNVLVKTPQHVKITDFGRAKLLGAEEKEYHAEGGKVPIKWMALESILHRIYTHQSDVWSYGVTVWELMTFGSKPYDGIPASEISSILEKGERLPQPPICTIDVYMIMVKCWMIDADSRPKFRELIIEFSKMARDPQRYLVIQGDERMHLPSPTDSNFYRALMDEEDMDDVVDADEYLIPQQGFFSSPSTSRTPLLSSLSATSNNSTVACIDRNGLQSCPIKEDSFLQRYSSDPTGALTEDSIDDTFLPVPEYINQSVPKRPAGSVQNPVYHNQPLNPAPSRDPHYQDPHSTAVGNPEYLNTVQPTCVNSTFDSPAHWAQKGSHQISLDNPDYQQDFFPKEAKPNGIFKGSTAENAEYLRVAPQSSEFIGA
MEASURED_PROPERTY: pIC50
Reminder that pIC50 is minus the log10 of a molar concentration.

Reference set (5 entries):
>>> measured_number("C=CC(=O)N[C@H]1C[C@H](Oc2nc(Nc3cnn(C)c3)nc3[nH]cc(Cl)c23)C1")
5.70
>>> measured_number("C=CC(=O)Nc1cccc(Oc2nc(Nc3cc(C)nn3C)nc3[nH]ccc23)c1")
6.75
>>> measured_number("C=CC(=O)Nc1cccc(Oc2nc(Nc3cnn(CCN(C)C)c3)nc3[nH]cnc23)c1")
5.94
>>> measured_number("C=CC(=O)N1C[C@@H](COc2nc(Nc3cnn(C)c3)nc3[nH]ccc23)[C@H](C)C1 (single isomer, unassigned)")
6.13
>>> measured_number("C=CC(=O)Nc1cc(F)cc(Oc2nc(Nc3ccn(C)n3)nc3[nH]ccc23)c1")
7.01

pIC50 reported for this compound C=CC(=O)Nc1cccc(Oc2nc(Nc3cnn([C@H]4CCN(C)C4)c3)nc3[nH]ccc23)c1F : 7.82

pIC50 reported for this compound C=CC(=O)Nc1cccc(Oc2nc(Nc3cc(OCCN(C)C)nn3C)nc3[nH]ccc23)c1F : 6.91

pIC50 reported for this compound C=CC(=O)Nc1cccc(Oc2nc(Nc3ccn(C)n3)nc3[nH]cc(Cl)c23)c1 : 6.69

* * *

target: EGFR L858R+T790M (Homo sapiens, UniProt P00533, L858R/T790M); assay: pEGFR Y1068 ELISA assay, NIH3T3/EGFR_L858R+T790M cells; conditions: 3T3 cell line, 2 hrs compound treatment; read-out: pEGFRY1068 ELISA3T3T790M—L858R IC50
Sequence (P00533 25-1210 T790M/L858R): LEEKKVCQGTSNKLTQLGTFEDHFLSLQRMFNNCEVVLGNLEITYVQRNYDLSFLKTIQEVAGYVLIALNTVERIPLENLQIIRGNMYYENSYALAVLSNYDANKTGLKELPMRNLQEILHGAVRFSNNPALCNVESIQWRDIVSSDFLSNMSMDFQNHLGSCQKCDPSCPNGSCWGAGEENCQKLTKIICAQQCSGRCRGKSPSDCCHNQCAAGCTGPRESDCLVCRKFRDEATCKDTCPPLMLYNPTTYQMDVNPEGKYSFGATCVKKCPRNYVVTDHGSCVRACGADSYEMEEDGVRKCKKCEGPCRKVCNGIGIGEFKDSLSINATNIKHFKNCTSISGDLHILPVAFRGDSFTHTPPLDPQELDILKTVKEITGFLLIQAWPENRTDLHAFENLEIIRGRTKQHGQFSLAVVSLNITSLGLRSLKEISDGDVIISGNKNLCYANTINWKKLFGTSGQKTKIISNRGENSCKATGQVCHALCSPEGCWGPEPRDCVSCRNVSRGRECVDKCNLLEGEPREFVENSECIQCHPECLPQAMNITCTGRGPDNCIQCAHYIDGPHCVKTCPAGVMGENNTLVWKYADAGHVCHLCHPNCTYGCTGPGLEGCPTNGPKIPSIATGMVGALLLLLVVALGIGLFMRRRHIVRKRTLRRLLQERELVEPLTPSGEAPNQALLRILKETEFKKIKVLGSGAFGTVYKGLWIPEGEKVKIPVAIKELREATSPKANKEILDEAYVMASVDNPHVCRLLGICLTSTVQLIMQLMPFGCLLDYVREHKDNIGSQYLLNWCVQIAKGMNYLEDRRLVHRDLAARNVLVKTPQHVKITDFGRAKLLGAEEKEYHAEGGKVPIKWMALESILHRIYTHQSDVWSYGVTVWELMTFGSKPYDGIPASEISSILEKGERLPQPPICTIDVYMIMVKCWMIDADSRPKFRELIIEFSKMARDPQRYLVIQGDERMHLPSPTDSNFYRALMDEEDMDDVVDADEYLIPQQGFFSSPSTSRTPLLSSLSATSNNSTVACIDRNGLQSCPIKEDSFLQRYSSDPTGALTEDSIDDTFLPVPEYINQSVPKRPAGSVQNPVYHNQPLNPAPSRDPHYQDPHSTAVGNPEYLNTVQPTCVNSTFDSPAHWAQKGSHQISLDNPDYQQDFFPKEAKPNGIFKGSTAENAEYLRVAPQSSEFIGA
MEASURED_PROPERTY: pIC50
Reminder that pIC50 is minus the log10 of a molar concentration.

Reference set (3 entries):
>>> measured_number("C=CC(=O)N1C[C@@H]2CN(c3nc(Nc4cn(C)nc4OC)nc4[nH]cc(Cl)c34)C[C@@H]2C1")
6.42
>>> measured_number("C=CC(=O)N1C[C@H](COc2nc(Nc3cnn(CC)n3)nc3[nH]cc(Cl)c23)[C@@H](OC)C1")
8.10
>>> measured_number("C=CC(=O)N1CCOC2(CCN(c3nc(Nc4cnn(C)c4)nc4[nH]cc(Cl)c34)C2)C1 (centres unmarked)")
7.59

// next item, pIC50 requested
Entry C=CC(=O)Nc1cccc(Oc2nc(Nc3cnn(C)c3)nc3[nH]cc(-c4cnn(C)c4)c23)c1 , tested on EGFR L858R+T790M (Homo sapiens, UniProt P00533, L858R/T790M), has a reported pIC50 of 7.80

* * *

biological target: EGFR L858R+T790M, endogenous (Homo sapiens, UniProt P00533, L858R/T790M); construct: NCI-H1975 (EGFR L858R+T790M, endogenous); host or cells: NCI-H1975; test: pEGFR Y1068 ELISA assay, NCI-H1975 cells; assay type: cell-based; conditions: value marked (H1975): NCI-H1975 cells, 2 hrs compound treatment; read-out: pEGFRY1068 ELISA3T3T790M—L858R IC50 (nM), (H1975)
MEASURED_PROPERTY: IC50
Write the figure, then the unit, nothing else.

Reference set (5 entries):
>>> result("C=CC(=O)N[C@]1(C)C[C@H](Oc2nc(Nc3cnn(C)c3)nc3[nH]cc(Cl)c23)C1 [Example 114]")
"39 nM"
>>> result("C=CC(=O)N1C[C@H](COc2nc(Nc3cnn(CC(C)O)c3)nc3[nH]cc(Cl)c23)[C@@H](OC)C1 (single isomer, unassigned) [Example 100]")
"153 nM"
>>> result("C=CC(=O)N1C[C@H](Nc2nc(Nc3cnn(C)c3)nc3[nH]cc(Cl)c23)[C@@H](C(F)(F)F)C1 [Example 87]")
"14 nM"
>>> result("C=CC(=O)N(C)[C@H]1C[C@H](Oc2nc(Nc3cnn(CC#N)c3)nc3[nH]cc(Cl)c23)C1 [Example 116]")
"24 nM"
>>> result("C=CC(=O)N[C@H]1C[C@H](Oc2nc(Nc3cnn(C)c3)nc3[nH]cc(-c4ccccn4)c23)C1 [Example 12]")
"689 nM"

IC50 reported for this compound C=CC(=O)N1CC[C@@H](Nc2nc(Nc3cnn(C)c3)nc3[nH]cc(Cl)c23)C1 [Example 96] : 15 nM

IC50 reported for this compound C=CC(=O)N1CC(Nc2nc(Nc3cnn(C)c3)nc3[nH]cc(Cl)c23)C1 [Example 79] : 136 nM

* * *

system: PC-9; test: Cell proliferation assay (CellTiter-Glo), PC-9; format: cell-based; settings: Homo sapiens, value marked (PC9), read-out: 3T3 del IC50, (PC9)
MEASURED_PROPERTY: IC50

>>> result("C=CC(=O)N1C[C@H](COc2nc(Nc3ccn(C)n3)nc3[nH]cc(Cl)c23)[C@@H](OC)C1")
"0.1 to 1 µM"

Entry C=CC(=O)N1C[C@H](Nc2nc(Nc3cnn(C)c3)nc3[nH]cc(Cl)c23)[C@@H](C(F)(F)F)C1 , tested on PC-9, has a reported IC50 of > 1 µM

Entry C=CC(=O)N1C[C@@H](F)[C@H](Nc2nc(Nc3cnn(C)c3)nc3[nH]cc(Cl)c23)C1 (single isomer, unassigned) , tested on PC-9, has a reported IC50 of 0.1 to 1 µM

Entry C=CC(=O)N(C)[C@H]1C[C@H](Nc2nc(Nc3cn(C)nc3C)nc3[nH]cc(Cl)c23)C1 , tested on PC-9, has a reported IC50 of 0.1 to 1 µM

Entry C=CC(=O)N[C@]1(C)C[C@H](Oc2nc(Nc3cnn(C)c3)nc3[nH]cc(Cl)c23)C1 , tested on PC-9, has a reported IC50 of 0.1 to 1 µM

Entry C=CC(=O)N1C[C@H](COc2nc(Nc3cnn(C)c3)nc3[nH]cc(Cl)c23)[C@@H](C(F)(F)F)C1 , tested on PC-9, has a reported IC50 of 0.1 to 1 µM

Entry C=CC(=O)N1C[C@@H]2CN(c3nc(Nc4cn(C)nc4OC)nc4[nH]cc(Cl)c34)C[C@@H]2C1 , tested on PC-9, has a reported IC50 of > 1 µM

* * *

pIC50 values for the compounds below.
biological target: EGFR wildtype, endogenous (Homo sapiens, UniProt P00533); construct: A549 (EGFR wildtype, endogenous); host or cells: A549; experiment: pEGFR Y1068 ELISA assay, A549 cells; type: cell-based; conditions: full serum media, stimulated 10 min with EGF (40 ng/mL), read-out: pEGFRY1068 ELISAA549 IC50
Sequence (P00533 25-1210): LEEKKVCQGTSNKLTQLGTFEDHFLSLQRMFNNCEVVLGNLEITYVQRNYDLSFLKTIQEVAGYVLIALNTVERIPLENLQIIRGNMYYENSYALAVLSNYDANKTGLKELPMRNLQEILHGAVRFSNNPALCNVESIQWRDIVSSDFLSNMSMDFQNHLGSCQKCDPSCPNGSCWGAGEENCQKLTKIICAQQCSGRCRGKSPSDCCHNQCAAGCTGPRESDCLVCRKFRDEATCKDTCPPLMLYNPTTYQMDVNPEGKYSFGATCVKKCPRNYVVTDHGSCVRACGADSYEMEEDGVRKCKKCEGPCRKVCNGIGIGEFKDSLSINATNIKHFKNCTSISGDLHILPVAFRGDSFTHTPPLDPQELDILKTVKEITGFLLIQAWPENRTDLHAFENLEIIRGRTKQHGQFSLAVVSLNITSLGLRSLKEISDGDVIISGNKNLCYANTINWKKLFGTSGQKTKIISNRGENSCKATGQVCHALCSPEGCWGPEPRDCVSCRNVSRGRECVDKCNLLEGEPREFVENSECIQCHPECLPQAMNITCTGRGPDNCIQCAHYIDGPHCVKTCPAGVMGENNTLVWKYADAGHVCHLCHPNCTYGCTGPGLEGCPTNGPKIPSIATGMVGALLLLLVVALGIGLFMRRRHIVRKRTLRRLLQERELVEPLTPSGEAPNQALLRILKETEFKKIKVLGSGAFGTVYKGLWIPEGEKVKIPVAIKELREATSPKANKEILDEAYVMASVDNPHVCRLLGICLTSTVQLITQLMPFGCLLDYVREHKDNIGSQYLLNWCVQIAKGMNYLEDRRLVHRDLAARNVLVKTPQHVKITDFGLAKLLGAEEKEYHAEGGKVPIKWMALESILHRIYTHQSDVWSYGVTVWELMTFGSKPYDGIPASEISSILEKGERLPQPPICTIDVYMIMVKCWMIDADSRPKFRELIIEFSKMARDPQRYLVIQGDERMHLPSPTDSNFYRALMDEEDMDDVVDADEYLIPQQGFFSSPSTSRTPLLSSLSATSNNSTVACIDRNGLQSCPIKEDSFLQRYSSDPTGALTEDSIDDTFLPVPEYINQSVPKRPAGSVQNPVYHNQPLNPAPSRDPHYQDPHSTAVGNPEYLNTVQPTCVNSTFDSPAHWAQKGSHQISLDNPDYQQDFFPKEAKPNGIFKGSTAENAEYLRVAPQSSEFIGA
pIC50: −log10 of the molar value.

Reference set (3 entries):
>>> result("C=CC(=O)Nc1cccc(Oc2nc(Nc3ccn(C)n3)nc3[nH]cc(Cl)c23)c1")
5.11
>>> result("C=CC(=O)N1C[C@H](COc2nc(Nc3ccn(C)n3)nc3[nH]cc(Cl)c23)[C@@H](OC)C1")
"< 5.00"
>>> result("C=CC(=O)Nc1cccc(COc2nc(Nc3cnn(C)c3)nc3[nH]ccc23)c1")
"< 5.00"

// next item, pIC50 requested
pIC50 reported for this compound C=CC(=O)N(C)[C@H]1C[C@H](Oc2nc(Nc3cnn(C)c3)nc3[nH]cc(Cl)c23)C1 : < 5.00

* * *

target: EGFR L858R+T790M, endogenous (Homo sapiens, UniProt P00533, L858R/T790M); construct: NCI-H1975 (EGFR L858R+T790M, endogenous); host or cells: NCI-H1975; experiment: pEGFR Y1068 ELISA assay, NCI-H1975 cells; assay type: cell-based; conditions: value marked (H1975): NCI-H1975 cells, 2 hrs compound treatment; read-out: pEGFRY1068 ELISA3T3T790M—L858R IC50 (nM), (H1975);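 note: sandwich ELISA of endogenous phospho-EGFR (Tyr1068) in lysates of treated cells, 11-point 1:3 serial dilution tested in duplicate per plate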
Each entry falls into one class according to its IC50; the ranges are band 1: < 30 nM; band 2: ≥ 30 nM and < 200 nM; band 3: ≥ 200 nM

Answered cases to consult:
>>> group_label("C=CC(=O)N[C@@H]1CCCN(c2nc(Nc3cnn(C)c3)nc3[nH]cc(Cl)c23)C1 [Example 11]")
"band 3"
>>> group_label("C=CC(=O)N1C[C@@H](F)[C@H](Nc2nc(Nc3cnn(C)c3)nc3[nH]cc(Cl)c23)C1 (single isomer, unassigned) [Example 83]")
"band 1"
>>> group_label("C=CC(=O)N1C[C@@H]2CN(c3nc(Nc4cnn(C)c4)nc4[nH]cc(Cl)c34)C[C@]2(O)C1 [Example 84]")
"band 2"

Ask: Class? Entry: C=CC(=O)N1C[C@H](Nc2nc(Nc3cnn(C)c3)nc3[nH]cc(Cl)c23)[C@H](n2ccnn2)C1 [Example 82]
Reply: band 3

Ask: Class? Entry: C=CC(=O)N(C)[C@@H]1CCCN(c2nc(Nc3cnn(C)c3)nc3[nH]cc(Cl)c23)C1 [Example 94]
Reply: band 3

Ask: Class? Entry: C=CC(=O)N(C)[C@H]1C[C@H](Oc2nc(Nc3cnn(C)c3)nc3[nH]cc(-c4cccnc4)c23)C1 [Example 13]
Reply: band 2

Ask: Class? Entry: C=CC(=O)Nc1cccc(Oc2nc(Nc3cc[nH]n3)nc3[nH]ccc23)c1 [Example 27]
Reply: band 2
